Tested on: CCRF-CEM leukemia
Test Method Notes: NCI tumour cell line growth inhibition, 48 h
Readout: TGI (µM)
Respond numerically; units are µM and should not be typed.

# TGI measured on CCRF-CEM leukemia for item C1COCCOCCOCCOCCO1.CC(=O)[CH-]C(C)=O.CC(=O)[CH-]C(C)=O.CC(=O)[CH-]C(C)=O.[V] = 41.3

# TGI measured on CCRF-CEM leukemia for item Cn1cnc([N+](=O)[O-])c1Sc1nnnn1-c1ccccc1 = 7.12

# TGI measured on CCRF-CEM leukemia for item C=C1C(=O)O[C@@H]2[C@H](O)[C@@H](C)[C@@H]3C=CC(=O)[C@@]3(C)[C@H](OC(=O)C=C(C)C)[C@H]12 = 0.461

# TGI measured on CCRF-CEM leukemia for item c1ccc(N=C2SC3=NCCN3C2=Nc2ccccc2)cc1 = 11.8

---

Test system: ACHN renal
Test Method Notes: NCI tumour cell line growth inhibition, 48 h
Readout: TGI

Kindly note the recorded TGI for NC1=Nc2cc(OCCCN3Cc4ccccc4C3)c(OCC3CC3)cc2C12CCCC2 , which is 11.9 µM

Kindly note the recorded TGI for Cc1ccc(Oc2ccc([N+](=O)[O-])cc2[N+](=O)[O-])c(C)c1 , which is > 100 µM

Kindly note the recorded TGI for N#Cc1ccc(Oc2nc3ccc(C(F)(F)F)cc3nc2-c2ccccc2)cc1 , which is 28.4 µM

Kindly note the recorded TGI for NC1CCC(N[C@@H]2C[C@H]2c2ccccc2)CC1 (stereo partly specified) , which is > 100 µM

Kindly note the recorded TGI for Cc1cccc(C)c1NC(=O)CCc1n[nH]c(=S)o1 , which is > 100 µM

Kindly note the recorded TGI for COc1cc(Nc2nc3ccc(C(F)(F)F)cc3nc2-c2ccccc2)cc(OC)c1OC , which is > 100 µM

---

For each entry below, report its TGI value.
Test system: SF-268 CNS
Test Method Notes: NCI tumour cell line growth inhibition, 48 h
Respond numerically; units are µM and should not be typed.

# TGI measured on SF-268 CNS for item N#Cc1ccc(Oc2nc3ccc(C(F)(F)F)cc3nc2-c2ccccc2)cc1 = 76.4

# TGI measured on SF-268 CNS for item CCCCCCCCCCCCCCCCCCOCC(COP(=O)([O-])OCC[N+](C)(C)C)OC (stereo not drawn) = 51.8

---

System: COLO 205 colon
Test Method Notes: NCI tumour cell line growth inhibition, 48 h
For each entry below, report its TGI value.
Respond numerically; units are µM and should not be typed.

Kindly note the recorded TGI for COc1cc2c(cc1OCCCCOc1ccc(-c3nc4ccccc4s3)cc1)N=C[C@@H]1CCCN1C2=O , which is 1.76

Kindly note the recorded TGI for COc1ccc(-c2cc(=O)c3c(OC)c(OC)c(OC)c(OC)c3o2)c(OC)c1 , which is 34.3

Kindly note the recorded TGI for CC/C=C/c1cc2cc[nH]c2c2c1C(C)C[C@@H]2C (stereo not given in full) , which is 37.6

Kindly note the recorded TGI for COc1cc2c(c(OC)c1OC)-c1ccc(OC)c(=O)cc1[C@@H](N(C)C=O)CC2 , which is 0.0251

---

Test system: EKVX NSCLC
Test Method Notes: NCI tumour cell line growth inhibition, 48 h
Readout: TGI

Kindly note the recorded TGI for COc1cc2c(cc1OCCCC(=O)Nc1cc(C(=O)NCCCN(C)C)n(C)n1)N=CC1CCCN1C2=O (configuration not stated) , which is > 62 µM

Kindly note the recorded TGI for COC(=O)c1ccccc1C1CN=NC12Cc1cccc(C)c1C2=O (configuration not stated) , which is > 100 µM

Kindly note the recorded TGI for O=c1c2cccnc2ncn1CCN1CCCC1 , which is > 100 µM

Kindly note the recorded TGI for COc1ccccc1-c1cc(=O)c2ccc(OC)c(OC)c2o1 , which is > 100 µM

Kindly note the recorded TGI for COc1ccc(N(/C=C/C(=O)C(F)(F)F)CC(=O)c2ccc(Cl)c(Cl)c2)cc1 , which is 27.6 µM

Kindly note the recorded TGI for Cc1nnc(-n2c(O)cc(=O)n(-c3ccccc3)c2=S)nc1/C=C/c1ccc(N(C)C)cc1 , which is > 100 µM

Kindly note the recorded TGI for NC(=O)c1nnsc1NC=O , which is > 100 µM

Kindly note the recorded TGI for N#Cc1ccc(Oc2nc3ccc(C(F)(F)F)cc3nc2-c2ccccc2)cc1 , which is 32.5 µM

Kindly note the recorded TGI for O=C(NCc1ccncc1)C1COc2cc(-c3cc(=O)c4ccccc4o3)ccc2O1 (configuration not stated) , which is > 100 µM

Kindly note the recorded TGI for Cc1cccc(C)c1NC(=O)CCc1n[nH]c(=S)o1 , which is > 100 µM

Kindly note the recorded TGI for C=C1C(=O)O[C@H]2[C@H]1CC/C(COC(=O)c1ccccc1)=C\CC[C@@]1(C)O[C@@H]21 , which is 4.46 µM

Kindly note the recorded TGI for COc1cc(/C=C(\OC(C)=O)c2ccc3c(c2)OCO3)cc(OC)c1OC , which is 54.9 µM

Kindly note the recorded TGI for Cn1c(=O)c2c(nc(Nc3ccc(Cl)cc3)n3c(=O)n(-c4ccccc4)c(=O)n23)n(C)c1=O , which is > 100 µM

Kindly note the recorded TGI for O=c1cc(N=Nc2ccc(Cl)cc2)[nH]c(=O)[nH]1 , which is 8.5 µM

Kindly note the recorded TGI for CC(C)c1ccc(NC(=S)NC(=O)c2ccccc2)cc1 , which is > 100 µM

Kindly note the recorded TGI for O=C(c1ccc(Cl)cc1)c1ccc(OCCSCCCCCCCCCCSCCOc2ccc(C(=O)c3ccc(Cl)cc3)cc2)cc1 , which is > 100 µM

Kindly note the recorded TGI for C=CCCCCCCCCCOC1C=CC(OC(C)=O)C(COC(C)=O)O1 (configuration not stated) , which is > 100 µM

Kindly note the recorded TGI for COc1ccc(/C=C/NC=O)cc1 , which is > 100 µM

Kindly note the recorded TGI for CC(=O)OC1Oc2ccccc2-c2oc(=O)c(-c3cc4ccccc4oc3=O)cc21 (configuration not stated) , which is 74.6 µM

Kindly note the recorded TGI for CC(C)(C)[C@H]1CCC2(OCCO2)[C@](O)(CCCO)C1 , which is > 100 µM

Kindly note the recorded TGI for CCOC(=O)CSc1[nH]c(NC(=S)Nc2ccccc2)c(C(N)=O)c1C(N)=O , which is > 10 µM

Kindly note the recorded TGI for COc1ccccc1/C=C/C(=O)/C=C/c1ccccc1OC , which is 6.22 µM
